# Test system: kappa opioid receptor
# Experiment notes: Radioligand competitive binding, [3H]U69,593
# Condition set: ratio of binding Ki values, Table 1
Reported endpoint: δ/κ

1. CC(C)[C@@H](CN1CC[C@@](C)(c2cccc(O)c2)[C@@H](C)C1)NC(=O)[C@H]1Cc2ccccc2CN1 | >2333
2. CC(C)[C@@H](CN1CC[C@@](C)(c2cccc(O)c2)[C@@H](C)C1)NC[C@H]1Cc2ccc(O)cc2CN1C | 4056
3. CC(C)[C@@H](CN1CC[C@@](C)(c2cccc(O)c2)[C@@H](C)C1)NC(=O)[C@@H]1Cc2ccc(O)cc2CN1C | 11622
4. CC(C)[C@@H](CN1CC[C@@](C)(c2cccc(O)c2)[C@@H](C)C1)NC(=O)[C@H]1Cc2ccc(O)cc2CN1C(=O)CN(C)C | >219

Where do the numbers come from? From patent US6974824B2.
